Measured fold improvement (off-rate against VHH 00027) values are reported for all entries that follow.
- Tested Target: T1, recombinant human Ang2-FLD (human, UniProt O15123 275-496, limits assumed)
- T1 construct: domain: FLD; not used
- T1 sequence (looked up): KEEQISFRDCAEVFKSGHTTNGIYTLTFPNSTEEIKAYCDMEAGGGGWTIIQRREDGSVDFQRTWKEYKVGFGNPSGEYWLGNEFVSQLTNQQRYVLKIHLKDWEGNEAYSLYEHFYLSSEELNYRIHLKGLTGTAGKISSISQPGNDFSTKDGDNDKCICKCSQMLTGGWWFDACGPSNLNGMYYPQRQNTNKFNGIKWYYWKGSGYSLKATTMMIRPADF
- Test Method Notes: ProteOn off-rate assay, periplasmic extract 1:10 over coated human Ang2-FLD

VHH 56A07 (VHH, periplasmic extract; not shown: C-terminal c-myc tag and His6 tag) VHH: EVQLVESGGGLVQAGGSLRLSCAASGFTLDDYAIGWFRQAPGKEREGVSSIRDNDGSTYYADSVKGRSTISSDNARNTVFLQMNSLKPEDTAVYYCAAVPAGRLRFGEQWYPIYEYDAWGQGTLVTVSS : 8.1 fold
VHH 55A06 (VHH, periplasmic extract; not shown: C-terminal c-myc tag and His6 tag) VHH: EVQLMESGGGLVQAGGSLRLSCAASGITLDDYAIGWFRQAPGKEREGVSSIRDNDGSTYYADSVKGRFTISSDNDKNTVNLQMNSLKPEDTAVYYCAAVPAGRLRFGEQWYPIYEYDAWGQGTLVTVSS : 9.2 fold

Q. What value of fold improvement (off-rate against VHH 00027) has been reported for the following binder? VHH 53A06 (VHH, periplasmic extract; not shown: C-terminal c-myc tag and His6 tag) VHH: EVQLVESGGSLVQAGGSLRLSCAASGLTLDDYAIGWFRQAPGKEREGVSSIRDNDGSTYYADSVKGRFTISSDNDKNTVYLQMNSLKPEDTAVYYCAAVPAGRLRFGEQWYPIYEYDAWGQGTLVTVSS
A. 8 fold
